# Lookup of reported pIC50 keyed by entry
- target: human MetAP2 enzyme (Homo sapiens)
- measurement-protocol: MetAP2 enzyme assay, enzyme complexed with manganese ions
- setup-conditions: MetAP2 Mn pIC50, MetAP2 enzyme complexed with manganese ions; Met-AMC substrate at Km
Note on pIC50: it is the negative log10 of concentration, concentration in mol/L.

> print(dat)
                                   compound  property.label  obs.value
1  Cc1ccc(C(=O)N2CCC(O)C2)cc1-c1cc(C(F)(F)F)cc2[nH]ncc12 (centres unmarked)           pIC50       7.50
2  OCCc1cccc(-c2cc(C(F)(F)F)cc3[nH]ncc23)c1           pIC50       7.90
3  CN(C)c1ncc(-c2cc(C(F)(F)F)cc3[nH]ncc23)cn1           pIC50       8.40
4  OC(COc1ccccc1-c1cc(C(F)(F)F)cc2[nH]ncc12)CN1CCOCC1 (centres unmarked)           pIC50       7.40

Note: attention shifts to another entry.
(Q) Read off the recorded pIC50 for COc1ccc(C(=O)N2CC(O)C2)cc1-c1cc(C(F)(F)F)cc2[nH]ncc12
(A) 7.90

###

# Lookup of reported pIC50 keyed by entry
- target: human MetAP2 enzyme (Homo sapiens)
- measurement-protocol: MetAP2 enzyme assay, enzyme complexed with manganese ions
- setup-conditions: MetAP2 Mn pIC50, MetAP2 enzyme complexed with manganese ions; Met-AMC substrate at Km
Note on pIC50: it is the negative log10 of concentration, concentration in mol/L.

> print(dat)
                                   molecule  obs.value
1  Cc1nn(CCC#N)c(C)c1-c1cc(C(F)(F)F)cc2[nH]ncc12 [Example 174]       7.90

(Q) Read off the recorded pIC50 for O=C(NCCO)c1cc(-c2cc(C(F)(F)F)cc3[nH]ncc23)ccn1 [Example 308]
(A) 8.20

(Q) Read off the recorded pIC50 for Nc1nc(Cl)ncc1-c1cc(C(F)(F)F)cc2[nH]ncc12 [Example 191]
(A) 7.60

(Q) Read off the recorded pIC50 for COc1ncc(-c2cc(C(F)(F)F)cc3[nH]ncc23)c(N)n1 [Example 256]
(A) 8.00

(Q) Read off the recorded pIC50 for FC(F)(F)c1cc(-c2cnn(CCN3CCOCC3)c2)c2cn[nH]c2c1 [Example 74]
(A) 8.40

###

- target: human MetAP2 enzyme (Homo sapiens, UniProt P50579)
- Sequence (P50579 whole entry): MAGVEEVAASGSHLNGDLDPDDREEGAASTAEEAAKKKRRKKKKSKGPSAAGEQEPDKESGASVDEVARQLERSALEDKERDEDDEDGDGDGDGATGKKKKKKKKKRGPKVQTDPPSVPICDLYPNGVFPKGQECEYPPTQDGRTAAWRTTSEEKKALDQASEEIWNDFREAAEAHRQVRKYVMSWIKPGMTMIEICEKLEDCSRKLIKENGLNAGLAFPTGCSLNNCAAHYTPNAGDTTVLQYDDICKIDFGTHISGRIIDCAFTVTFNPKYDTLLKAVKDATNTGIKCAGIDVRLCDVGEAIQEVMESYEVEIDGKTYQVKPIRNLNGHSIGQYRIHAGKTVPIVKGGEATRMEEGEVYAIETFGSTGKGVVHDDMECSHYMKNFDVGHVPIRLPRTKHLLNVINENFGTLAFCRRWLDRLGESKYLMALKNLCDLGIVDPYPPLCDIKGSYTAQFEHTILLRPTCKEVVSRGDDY
- measurement-protocol: MetAP2 enzyme assay, enzyme complexed with cobalt ions
- setup-conditions: MetAP2 Co pIC50, MetAP2 enzyme complexed with cobalt ions; Met-AMC substrate at Km
property-label: pIC50
Note on pIC50: it is the negative log10 of concentration, concentration in mol/L.

(Q) Read off the recorded pIC50 for NS(=O)(=O)c1ccc(-c2cc(C(F)(F)F)cc3[nH]ncc23)cc1Cl
(A) 7.00

(Q) Read off the recorded pIC50 for CN(C)C(=O)c1cc(F)cc(-c2cc(C(F)(F)F)cc3[nH]ncc23)c1
(A) 6.80

(Q) Read off the recorded pIC50 for N#CCOc1ccccc1-c1cc(C(F)(F)F)cc2[nH]ncc12
(A) 7.30

###

- target: human MetAP2 enzyme (Homo sapiens)
- measurement-protocol: MetAP2 enzyme assay, enzyme complexed with cobalt ions
- setup-conditions: MetAP2 Co pIC50, MetAP2 enzyme complexed with cobalt ions; Met-AMC substrate at Km
property-label: pIC50
Note on pIC50: it is the negative log10 of concentration, concentration in mol/L.

(Q) Read off the recorded pIC50 for Cn1cc(-c2cc(C(F)(F)F)cc3[nH]ncc23)c(=O)n(Cc2ccc(F)cc2)c1=O
(A) 6.00

###

- target: human MetAP2 enzyme (Homo sapiens)
- measurement-protocol: MetAP2 enzyme assay, enzyme complexed with cobalt ions
- setup-conditions: MetAP2 Co pIC50, MetAP2 enzyme complexed with cobalt ions; Met-AMC substrate at Km
property-label: pIC50
Note on pIC50: it is the negative log10 of concentration, concentration in mol/L.

// known answers, use as guide
> print(dat)
                            molecular.string  obs.value
 1  O=S(=O)(NCCO)c1ccc(-c2cc(C(F)(F)F)cc3[nH]ncc23)cn1       7.20
 2  CC(C)Oc1ncccc1-c1cc(C(F)(F)F)cc2[nH]ncc12       7.20
 3  CNC(=O)c1ccc(-c2cc(C(F)(F)F)cc3[nH]ncc23)cc1       7.80
 4  NS(=O)(=O)c1cncc(-c2cc(C(F)(F)F)cc3[nH]ncc23)c1       7.00
 5    CCOc1ncccc1-c1cc(C(F)(F)F)cc2[nH]ncc12       7.20
 6  O=C(NCCO)c1cc(-c2cc(C(F)(F)F)cc3[nH]ncc23)ccn1       7.10
 7  C[C@@H](O)CNC(=O)c1cc(-c2cc(C(F)(F)F)cc3[nH]ncc23)c(=O)n(C)c1       6.30
 8     COc1ncccc1-c1cc(C(F)(F)F)cc2[nH]ncc12       7.40
 9  COc1cc(-c2cc(C(F)(F)F)cc3[nH]ncc23)c(OC)nn1       7.20
10  O=C(NCCO)c1ccc(-c2cc(C(F)(F)F)cc3[nH]ncc23)cn1       7.40

(Q) Read off the recorded pIC50 for Cn1cc(C(=O)N2CCOCC2)cc(-c2cc(C(F)(F)F)cc3[nH]ncc23)c1=O
(A) 6.20

(Q) Read off the recorded pIC50 for C[C@@H](O)CNC(=O)c1c[nH]c(=O)c(-c2cc(C(F)(F)F)cc3[nH]ncc23)c1
(A) 6.20

(Q) Read off the recorded pIC50 for C[C@@H](O)CNc1ncc(-c2cc(C(F)(F)F)cc3[nH]ncc23)cn1
(A) 7.10

(Q) Read off the recorded pIC50 for Nc1nc(Cl)ncc1-c1cc(C(F)(F)F)cc2[nH]ncc12
(A) 6.10

(Q) Read off the recorded pIC50 for Cc1nn(C(F)F)c(C)c1-c1cc(C(F)(F)F)cc2[nH]ncc12
(A) 7.10

(Q) Read off the recorded pIC50 for CS(=O)(=O)c1ccccc1-c1cc(C(F)(F)F)cc2[nH]ncc12
(A) 5.80

###

- target: human MetAP2 enzyme (Homo sapiens)
- measurement-protocol: MetAP2 enzyme assay, enzyme complexed with manganese ions
- setup-conditions: MetAP2 Mn pIC50, MetAP2 enzyme complexed with manganese ions; Met-AMC substrate at Km
pIC50: −log10 of the molar value.
pIC50 below 8 gives f; pIC50 at or above it gives t.

> print(dat)
                                   molecule  class.label
1  O=C(NCCO)c1cc(-c2cc(C(F)(F)F)cc3[nH]ncc23)c[nH]c1=O [Example 228]            t
2  Cn1cc(-c2cc(C(F)(F)F)cc3[nH]ncc23)c(=O)n(CC(=O)N2CCOCC2)c1=O [Example 310]            f

(Q) # bool: pIC50 of COc1ncccc1-c1cc(C(F)(F)F)cc2[nH]ncc12 [Example 53] >= 8
(A) t

###

- target: human MetAP2 enzyme (Homo sapiens, UniProt P50579)
- measurement-protocol: MetAP2 enzyme assay, enzyme complexed with manganese ions
- setup-conditions: MetAP2 Mn pIC50, MetAP2 enzyme complexed with manganese ions; Met-AMC substrate at Km
pIC50: −log10 of the molar value.
pIC50 below 8 gives Not fulfilled; pIC50 at or above it gives Fulfilled.

Check out these entries, answers already filled in.
> print(dat)
                                   molecule                                    target    class.label
1  NC(=O)c1ccc(-c2cc(C(F)(F)F)cc3[nH]ncc23)cc1  human MetAP2 enzyme (Homo sapiens, UniProt P50579)      Fulfilled
2  Cc1nn(CC#N)c(C)c1-c1cc(C(F)(F)F)cc2[nH]ncc12  human MetAP2 enzyme (Homo sapiens, UniProt P50579)  Not fulfilled
3   Cc1nccc(N)c1-c1cc(C(F)(F)F)cc2[nH]ncc12  human MetAP2 enzyme (Homo sapiens, UniProt P50579)  Not fulfilled

Okay, next one:
(Q) # bool: pIC50 of CN1CCN(C(=O)c2cccc(-c3cc(C(F)(F)F)cc4[nH]ncc34)c2)CC1 >= 8
(A) Fulfilled

###

- target: human MetAP2 enzyme (Homo sapiens, UniProt P50579)
- measurement-protocol: MetAP2 enzyme assay, enzyme complexed with cobalt ions
- setup-conditions: MetAP2 Co pIC50, MetAP2 enzyme complexed with cobalt ions; Met-AMC substrate at Km
# Lookup of reported IC50 keyed by entry

// known answers, use as guide
> print(dat)
                           molecular.string                                    target  obs.value
1  N#Cc1cnc2c(-c3cc(C(F)(F)F)cc4[nH]ncc34)cnn2c1N  human MetAP2 enzyme (Homo sapiens, UniProt P50579)    1580 nM
2    Cc1n[nH]cc1-c1cc(C(F)(F)F)cc2[nH]ncc12  human MetAP2 enzyme (Homo sapiens, UniProt P50579)    39.8 nM
3  COc1ccc(OC)c(-c2cc(C(F)(F)F)cc3[nH]ncc23)c1  human MetAP2 enzyme (Homo sapiens, UniProt P50579)    15.8 nM
4  O=C1Cc2cc(-c3cc(C(F)(F)F)cc4[nH]ncc34)cnc2N1  human MetAP2 enzyme (Homo sapiens, UniProt P50579)    39.8 nM

(Q) Read off the recorded IC50 for O=C(c1c[nH]c(=O)c(-c2cc(C(F)(F)F)cc3[nH]ncc23)c1)N1CCOCC1
(A) 398 nM
